Values from patent US20260297081A1

target: CDK4 (Homo sapiens, UniProt P11802+Q16531); assay: CDK4 percentage degradation in Calu-1 cells (Table 6); type: cell-based; design: Cells that express cyclin D1-3 and CDK4/6 proteins were treated with heterobifunctional compounds; endogenous in cells; host or cells: Calu-1; conditions: 40 nM, 16 hours
Sequence (P11802 2-303 limits assumed): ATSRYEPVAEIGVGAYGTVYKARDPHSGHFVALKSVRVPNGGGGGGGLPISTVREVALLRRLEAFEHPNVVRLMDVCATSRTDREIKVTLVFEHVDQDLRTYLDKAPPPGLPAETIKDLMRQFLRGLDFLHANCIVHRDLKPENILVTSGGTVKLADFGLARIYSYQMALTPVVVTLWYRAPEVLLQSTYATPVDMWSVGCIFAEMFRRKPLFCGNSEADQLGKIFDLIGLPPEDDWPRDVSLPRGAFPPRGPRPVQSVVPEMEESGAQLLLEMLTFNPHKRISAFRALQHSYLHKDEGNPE
Sequence (P24385 whole entry partner): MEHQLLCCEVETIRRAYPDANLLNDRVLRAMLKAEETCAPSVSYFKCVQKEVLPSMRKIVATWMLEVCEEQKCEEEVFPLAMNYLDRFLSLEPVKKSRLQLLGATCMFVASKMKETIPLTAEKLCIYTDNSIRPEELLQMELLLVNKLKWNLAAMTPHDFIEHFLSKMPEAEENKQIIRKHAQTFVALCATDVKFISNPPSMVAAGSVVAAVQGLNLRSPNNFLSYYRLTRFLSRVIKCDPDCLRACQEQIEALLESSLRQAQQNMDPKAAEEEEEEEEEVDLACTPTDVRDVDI
Sequence (Q16531 2-1140 limits assumed): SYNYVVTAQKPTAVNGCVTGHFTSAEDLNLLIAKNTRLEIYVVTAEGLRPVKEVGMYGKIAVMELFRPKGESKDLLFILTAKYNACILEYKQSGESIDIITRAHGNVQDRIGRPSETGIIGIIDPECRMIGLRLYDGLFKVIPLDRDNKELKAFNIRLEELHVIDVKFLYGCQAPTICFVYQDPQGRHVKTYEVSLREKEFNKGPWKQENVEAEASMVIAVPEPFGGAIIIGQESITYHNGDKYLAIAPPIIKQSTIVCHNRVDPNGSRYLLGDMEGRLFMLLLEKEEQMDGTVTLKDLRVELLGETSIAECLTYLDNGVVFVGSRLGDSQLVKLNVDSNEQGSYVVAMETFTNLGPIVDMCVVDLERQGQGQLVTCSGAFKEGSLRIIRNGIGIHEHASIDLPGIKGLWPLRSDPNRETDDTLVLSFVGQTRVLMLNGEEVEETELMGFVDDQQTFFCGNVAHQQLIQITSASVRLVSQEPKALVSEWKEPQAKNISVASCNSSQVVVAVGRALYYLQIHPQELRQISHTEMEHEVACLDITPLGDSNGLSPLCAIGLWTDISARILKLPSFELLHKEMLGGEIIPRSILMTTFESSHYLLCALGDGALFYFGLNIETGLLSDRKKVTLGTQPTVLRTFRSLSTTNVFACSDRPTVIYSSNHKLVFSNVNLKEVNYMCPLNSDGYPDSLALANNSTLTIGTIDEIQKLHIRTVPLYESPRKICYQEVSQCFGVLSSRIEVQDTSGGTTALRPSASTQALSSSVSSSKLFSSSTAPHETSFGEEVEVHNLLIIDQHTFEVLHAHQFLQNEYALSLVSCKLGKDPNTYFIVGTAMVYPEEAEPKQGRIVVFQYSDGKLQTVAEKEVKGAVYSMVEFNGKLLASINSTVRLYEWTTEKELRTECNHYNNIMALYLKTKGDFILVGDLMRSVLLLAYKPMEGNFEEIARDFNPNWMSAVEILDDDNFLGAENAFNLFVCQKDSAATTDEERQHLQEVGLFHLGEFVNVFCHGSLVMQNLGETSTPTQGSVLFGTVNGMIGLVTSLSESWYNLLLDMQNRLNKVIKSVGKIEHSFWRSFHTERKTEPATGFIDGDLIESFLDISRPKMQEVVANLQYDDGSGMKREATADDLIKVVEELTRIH
Items are presented alongside their recorded inhibition at 0.04 µM.

[
  {
    "compound": "CC(=O)c1c(C)c2cnc(Nc3ccc(N4CCN(C5CCN(C(=O)[C@H]6CC[C@H](Nc7nc(NC(C)C)ccc7C(=O)Nc7ccc(N(C)C)nn7)CC6)C5)CC4)cn3)nc2n(C2CCCC2)c1=O (stereo partly shown)",
    "inhibition at 0.04 µM": "< 30%"
  },
  {
    "compound": "CNc1ccc(C(=O)Nc2ccc(N(C)C)nn2)c(NC[C@H]2CC[C@H](CCC(=O)N3CCN(c4ccc(Nc5ncc6c(C)c(C(C)=O)c(=O)n(C7CCCC7)c6n5)nc4)CC3)CC2)n1",
    "inhibition at 0.04 µM": "< 30%"
  },
  {
    "compound": "CNc1ccc(C(=O)Nc2ccc(N(C)C)nn2)c(N[C@H]2CC[C@H](CNC(=O)CN3CCN(c4ccc(Nc5ncc6c(C)c(C(C)=O)c(=O)n(C7CCCC7)c6n5)nc4)CC3)CC2)n1",
    "inhibition at 0.04 µM": "< 30%"
  },
  {
    "compound": "CNc1ccc(C(=O)Nc2ccn(C)n2)c(NC2CC3(C2)CN(C(=O)CCN2CCN(c4ccc(Nc5ncc6c(C)c(C(C)=O)c(=O)n(C7CCCC7)c6n5)nc4)CC2)C3)n1",
    "inhibition at 0.04 µM": "50 to 80%"
  },
  {
    "compound": "CNc1ccc(C(=O)Nc2cc(C)on2)c(NC2CCN(C(=O)CN3CCN(c4ccc(Nc5ncc6c(C)c(C(C)=O)c(=O)n(C7CCCC7)c6n5)nc4)CC3)CC2)n1",
    "inhibition at 0.04 µM": "30 to 50%"
  },
  {
    "compound": "CNc1ccc(C(=O)Nc2ccc(N(C)C)nn2)c(NC2CC3(C2)CC(OCC(=O)N2CCN(c4ccc(Nc5ncc6c(C)c(C(C)=O)c(=O)n(C7CCCC7)c6n5)nc4)CC2)C3)n1 (stereo not shown)",
    "inhibition at 0.04 µM": "< 30%"
  },
  {
    "compound": "CNc1ccc(C(=O)Nc2ccc(C)c(C(C)C)n2)c(NCCCCCNC(=O)CN2CCN(c3ccc(Nc4ncc5c(C)c(C(C)=O)c(=O)n(C6CCCC6)c5n4)nc3)CC2)n1",
    "inhibition at 0.04 µM": "< 30%"
  },
  {
    "compound": "[2H]C([2H])([2H])Nc1ccc(C(=O)Nc2cc(C)n(C)n2)c(NC2CC(CNC(=O)CN3CCN(c4ccc(Nc5ncc6c(C)c(C(C)=O)c(=O)n(C7CCCC7)c6n5)nc4)CC3)C2)n1 (stereo not shown)",
    "inhibition at 0.04 µM": "50 to 80%"
  },
  {
    "compound": "CNc1ccc(C(=O)Nc2ccc(N(C)C)nn2)c(NC2CC3(C2)CN(C(=O)C2(CN4CCN(c5ccc(Nc6ncc7c(C)c(C(C)=O)c(=O)n(C8CCCC8)c7n6)nc5)CC4)CC2)C3)n1",
    "inhibition at 0.04 µM": "50 to 80%"
  },
  {
    "compound": "CNc1ccc(C(=O)Nc2ccc(N(C)C)nn2)c(NC2CC(C(=O)NCCN3CCN(c4ccc(Nc5ncc6c(C)c(C(C)=O)c(=O)n(C7CCCC7)c6n5)nc4)CC3)C2)n1 (stereo not shown)",
    "inhibition at 0.04 µM": "50 to 80%"
  }
]
